biological target: human GCG receptor (human, UniProt P47871 26-477); assay: cell-based or functional assay
Sequence (P47871 26-477): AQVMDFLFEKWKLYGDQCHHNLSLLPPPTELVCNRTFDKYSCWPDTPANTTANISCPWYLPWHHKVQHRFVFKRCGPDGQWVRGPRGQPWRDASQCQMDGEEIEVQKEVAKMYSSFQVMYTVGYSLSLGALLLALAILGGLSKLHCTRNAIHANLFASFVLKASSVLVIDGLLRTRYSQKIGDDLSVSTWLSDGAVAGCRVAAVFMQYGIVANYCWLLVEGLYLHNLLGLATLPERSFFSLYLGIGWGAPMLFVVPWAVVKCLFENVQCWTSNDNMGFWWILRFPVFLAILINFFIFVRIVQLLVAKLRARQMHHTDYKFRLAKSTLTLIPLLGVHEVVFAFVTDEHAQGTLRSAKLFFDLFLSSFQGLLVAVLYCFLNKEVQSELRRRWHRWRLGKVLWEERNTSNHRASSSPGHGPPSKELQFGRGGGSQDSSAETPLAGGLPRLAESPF
Bridge positions count the residues as written; N and C are the ends. Square brackets hold non-standard residues; d marks the D form. Ends that are not written are not given here. Aib = CC(C)(N)C(=O)O
Label Met when In vitro activity compared to native peptide (%) vs Glucagon is strictly below 8%; at or above that, label Not met.

Observe how each entry below is paired with its result.
[
  {
    "Binder": "H[Aib]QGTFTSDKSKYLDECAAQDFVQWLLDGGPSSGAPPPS [Triple agonist of SEQ ID NO: 41]",
    "Class Label": "Met"
  },
  {
    "Binder": "Y[Aib]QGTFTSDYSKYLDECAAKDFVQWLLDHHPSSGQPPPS (bridge (positions not given here); ends not checked; also: ring formation between underlined amino acids, places not given here) [Triple agonist of SEQ ID NO: 67]",
    "Class Label": "Not met"
  },
  {
    "Binder": "H[Aib]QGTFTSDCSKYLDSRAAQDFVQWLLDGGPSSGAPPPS [Triple agonist of SEQ ID NO: 26]",
    "Class Label": "Met"
  },
  {
    "Binder": "H[Aib]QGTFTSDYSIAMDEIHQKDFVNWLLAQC (bridge 16-20) [Triple agonist of SEQ ID NO: 55]",
    "Class Label": "Met"
  }
]

Criterion: In vitro activity compared to native peptide (%) vs Glucagon strictly below 8%. Is it met by Y[Aib]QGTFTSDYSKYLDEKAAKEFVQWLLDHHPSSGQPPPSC (bridge 16-20) [Triple agonist of SEQ ID NO: 75] ? Not met
